# key: entry, value: TGI
Test system: NCI-H522 lung
Test: NCI tumour cell line growth inhibition, 48 h

COMPOUND	TGI
Cc1csc2c(=O)n(C3OC(CO)C(O)C3O)c(=O)[nH]c12 (stereo not given)	> 100 µM
c1ccc2[nH]c(-c3ccc(-c4nccc5c4[nH]c4ccccc45)cc3)nc2c1	5.04 µM
COc1cnc2c(c1)C(=O)c1c-2n(CCCn2ccnc2)c(=O)c2cc(F)ccc12	0.169 µM
CC(C)N(Cc1ccccc1)c1c(S)ssc1=S	> 100 µM
O=C(c1cccs1)N(C(=S)N1CCN(c2ccccn2)CC1)c1ccccc1	> 100 µM
COc1ccc(Br)c(N/N=C2\CCCNC2=O)c1	> 100 µM
O=C(CSc1nnc(-c2ccc(N=Cc3ccc(Cl)cc3)cc2)o1)Nc1ccccc1[N+](=O)[O-]	> 100 µM
FC(F)(F)c1ccc(Nc2nc(-c3c(C(F)(F)F)nc4ccccn34)cs2)cc1	0.754 µM
O=C(O)C(/C=C/c1ccccc1)c1ccccc1 (stereo not given)	> 100 µM
COC1CC(OS(=O)(=O)c2ccc([N+](=O)[O-])cc2)C(OC(=O)c2ccccc2)C(C)O1 (stereo not given)	> 100 µM

###

System: OVCAR-5 ovarian
Assay: NCI tumour cell line growth inhibition, 48 h
ASSAY_METRIC: TGI (µM)

MOLECULE	ASSAY_METRIC	CENSOR_SYMBOL	RECORDED_RESULT
COc1cc([N+](=O)[O-])c(OC)cc1-c1nc2sc(Cl)cn2c1/C(N)=N/C(=N)N	TGI	=	45.4
Nc1c(C(=O)c2cccc(-c3ccncc3)c2)cnn1-c1ccc(F)cc1F	TGI	>	25
C[C@H]1[C@H](C)CC[C@]2(CO)CC[C@]3(C)C(=CC[C@@H]4[C@@]5(C)CCCNC(C)(C)[C@@H]5CC[C@]43C)[C@H]12	TGI	=	3.18
CP1(=O)CCCCC1	TGI	>	100
COc1ccc(Br)c(N/N=C2\CCCNC2=O)c1	TGI	>	100
CCOc1ccc(NC(=O)C(=O)CC(=O)c2sc(NNC(C)=O)nc2C)cc1	TGI	>	100
CC1CCC(NC(=O)N(CCCl)N=O)CC1 (stereo not given)	TGI	=	105
CCS(CC)(CC)CC1CCCC2=CCC(P(=O)(c3ccccc3)c3ccccc3)CC21 (stereo not given)	TGI	=	30.4
COC(=O)/C=C(/C)n1nc2ccccc2n1	TGI	>	100
Cc1c(C(N)=O)sc2c1C(=O)N(Cc1ccccc1)C1=NN=C(c3ccc(Cl)cc3)CN12	TGI	=	21.1
COc1ccc2[nH]cc(CCNC(=O)[C@H](Cc3ccccc3)NC(=O)[C@@H](NCC(F)(F)F)C(C)C)c2c1	TGI	=	34.8
NN(CC(=O)O)CC(=O)O	TGI	>	100
C=CCNC(=O)NC(=O)CSC1=NNC2(C(=O)N1)c1ccccc1-c1ccccc12	TGI	>	10
COc1ccc(/C(COc2ccc3c(=O)cc(-c4ccccc4)oc3c2)=N\O)cc1	TGI	>	10.2
CCOC(=O)NC(=O)c1cn(CCOC(=O)CCCCCCCCC(=O)OCCn2cc(C(=O)NC(=O)OCC)c(=O)[nH]c2=O)c(=O)[nH]c1=O	TGI	>	100
CC(C)C1CC[C@@H](C)C[C@@]1(O)CC(N)=O (stereo not given in full)	TGI	>	100
FC(F)(F)c1ccc(Nc2nc(-c3c(C(F)(F)F)nc4ccccn34)cs2)cc1	TGI	=	16.5
O=C(NC1=NCC(CN2CCN(c3ccccc3)CC2)O1)Nc1ccccc1 (stereo not given)	TGI	>	100
C=CCNC1=C2C[C@@H](C)C[C@@H](OC)[C@H](OC(=O)CCN)[C@H](C)/C=C(\C)[C@@H](OC(N)=O)[C@H](OC)/C=C\C=C(/C)C(=O)NC(=CC1=O)C2=O	TGI	=	23.3
O=C(CN1CCCCC1)Nc1ccc2sc3ccccc3c(=O)c2n1	TGI	=	38.9

###

# key: entry, value: TGI
Test system: U251 CNS
Assay: NCI tumour cell line growth inhibition, 48 h

COMPOUND	TGI
COc1ccc(-c2cn(-c3cc(OC)c(OC)c(OC)c3)c(SCc3ccccc3)n2)cc1OC	> 100 µM
CN(C)CC/C(=N\Nc1ccc([N+](=O)[O-])cc1)c1ccccc1	25.5 µM
CN1CCc2[nH]c3ccccc3c2C1	> 100 µM
CCCCNc1nc(C#N)c(N)s1	> 100 µM
COC(=O)/C=C(/C)n1nc2ccccc2n1	> 100 µM
COc1cc2c(c(O)c1OC)-c1c(cc(OC)c(OC)c1OC)CC(C)C(C)C2 (stereo unspecified)	> 100 µM
O=C(ON=C1c2ccccc2C(Br)C(Br)c2ccccc21)c1cc([N+](=O)[O-])cc([N+](=O)[O-])c1 (stereo unspecified)	30.2 µM
COC1=C(OC)C(=O)C(Cc2c(Cl)nc3sc(C)cn23)=C(C)C1=O	36 µM
Cc1ccc(S(=O)(=O)N/N=C/c2c(O)ccc3ccccc23)cc1	> 100 µM
CCC1C2Cc3ccc(O)cc3C1(CC)CCN2C (stereo unspecified)	> 100 µM
CC(C)=CCC/C(C)=C/CC/C(C)=C/CC/C(C)=C/C=C/C=C(\C)CC/C=C(\C)CC/C=C(\C)CCC=C(C)C	> 100 µM
Cn1cc(C(=O)NCCC(=N)N)cc1NC(=O)C1=[N+](C)C=C(NC(=O)c2cccc(C(=O)NC3=CC(C(=O)Nc4cc(C(=O)NCCC(=N)N)cn4C)=[N+](C)C3)c2)C1	> 100 µM
O=[N+]([O-])O.[Cu+2].[NH-]CC[NH-].[NH-]CC[NH-]	> 10 µM
C=C(C)C(=O)Nc1ccc(NC(C)C)cc1	> 100 µM
COc1ccc2cc(C(=O)/C=C/c3ccc(Cl)cc3Cl)ccc2c1	36.2 µM
COc1cc([C@@H]2OC[C@@H]3C(c4cc(OC)c5c(c4)OCO5)OC[C@@H]32)cc(OC)c1OC (stereo partly specified)	> 100 µM
COC(=O)[C@@H]1CN(C(C)=O)C(=O)N1	> 100 µM
COc1cc(/C=C2/C(=O)N(C(=O)OCC(C)C)C(Cc3cc(OC)c(OC)c(C)c3OC)C(=O)N2Cc2ccccc2)c(OC)c(C)c1OC (stereo unspecified)	> 100 µM
COc1ccc(Br)c(N/N=C2\CCCNC2=O)c1	> 100 µM
Nc1c(C(=O)c2cccc(-c3ccncc3)c2)cnn1-c1ccc(F)cc1F	> 25 µM
Clc1ccc(C2SCc3nc4ccccc4n32)c(Cl)c1 (stereo unspecified)	32 µM
C=CCNC1=C2C[C@@H](C)C[C@@H](OC)[C@H](OC(=O)CCN)[C@H](C)/C=C(\C)[C@@H](OC(N)=O)[C@H](OC)/C=C\C=C(/C)C(=O)NC(=CC1=O)C2=O	18.8 µM
O=C(CSc1nnc(-c2ccc(N=Cc3ccc(Cl)cc3)cc2)o1)Nc1ccccc1[N+](=O)[O-]	> 100 µM
CC(C)OC(=O)c1ccc(NCc2cc(O)ccc2O)cc1Cl	24.6 µM
COc1ccc(-c2c(C#N)c(N)n(C3OCC(OC(C)=O)C(OC(C)=O)C3OC(C)=O)c(=S)c2C#N)cc1 (stereo unspecified)	> 100 µM
Cn1cc2ccccc2c1-c1nc(F)nc(F)n1	> 100 µM
c1ccc2c(c1)cc(C1NCCc3[nH]cnc31)c1ccccc12 (stereo unspecified)	> 57.7 µM
O=C(CC(=O)N(C(=O)/C=C\c1ccccc1)c1ccc(Cl)cc1)N1N=C(c2ccccc2)C(N=Nc2cccc([N+](=O)[O-])c2)C1=O (stereo unspecified)	33.7 µM
COC(=O)C1(C)CCC(c2ccc(C)cc2)=C(CC(=O)O)C1 (stereo unspecified)	> 100 µM
O=[N+]([O-])c1cc(C(F)(F)F)cc([N+](=O)[O-])c1CCl	14.2 µM
CP1(=O)CCCCC1	> 100 µM
CCOP(=O)(OCC)/C(C#N)=C/c1ncc[nH]1	> 100 µM
O=C1CCCCC/C1=C\c1cccc(Cl)c1	> 100 µM
CC(=O)NC1C(OCc2ccccc2)OC(CO)C(O)C1OC(C)C(=O)NC(C(=O)N[C@@H](CCC(=O)NCCNCCNc1c2ccccc2nc2cccc([N+](=O)[O-])c12)C(N)=O)C(C)C (stereo partly specified)	> 100 µM
Cc1cc(=O)n(-c2ccccc2C)c(C)n1	> 100 µM
CN(C)Nc1cc(=O)[nH]c(=O)[nH]1	> 100 µM
O=[N+]([O-])/C(C(Cl)=C(Cl)Cl)=C(\N1CCOCC1)n1nnc2ccccc21	30.3 µM
CC(C)[C@H](N)C(=O)N1CCC[C@H]1B(O)O	> 100 µM
CN1C(=Nc2ccccc2)SC1=Nc1ccccc1	> 100 µM
CCOc1ccc2c(c1)[n+]([O-])c(-c1ccc(Cl)cc1)c(N)[n+]2[O-]	> 100 µM
O=C(O)CNC(=O)c1ccc(-c2ccccc2)cc1	> 100 µM
